# Target: UniProt:P22455
# Sequence (P22455 whole entry): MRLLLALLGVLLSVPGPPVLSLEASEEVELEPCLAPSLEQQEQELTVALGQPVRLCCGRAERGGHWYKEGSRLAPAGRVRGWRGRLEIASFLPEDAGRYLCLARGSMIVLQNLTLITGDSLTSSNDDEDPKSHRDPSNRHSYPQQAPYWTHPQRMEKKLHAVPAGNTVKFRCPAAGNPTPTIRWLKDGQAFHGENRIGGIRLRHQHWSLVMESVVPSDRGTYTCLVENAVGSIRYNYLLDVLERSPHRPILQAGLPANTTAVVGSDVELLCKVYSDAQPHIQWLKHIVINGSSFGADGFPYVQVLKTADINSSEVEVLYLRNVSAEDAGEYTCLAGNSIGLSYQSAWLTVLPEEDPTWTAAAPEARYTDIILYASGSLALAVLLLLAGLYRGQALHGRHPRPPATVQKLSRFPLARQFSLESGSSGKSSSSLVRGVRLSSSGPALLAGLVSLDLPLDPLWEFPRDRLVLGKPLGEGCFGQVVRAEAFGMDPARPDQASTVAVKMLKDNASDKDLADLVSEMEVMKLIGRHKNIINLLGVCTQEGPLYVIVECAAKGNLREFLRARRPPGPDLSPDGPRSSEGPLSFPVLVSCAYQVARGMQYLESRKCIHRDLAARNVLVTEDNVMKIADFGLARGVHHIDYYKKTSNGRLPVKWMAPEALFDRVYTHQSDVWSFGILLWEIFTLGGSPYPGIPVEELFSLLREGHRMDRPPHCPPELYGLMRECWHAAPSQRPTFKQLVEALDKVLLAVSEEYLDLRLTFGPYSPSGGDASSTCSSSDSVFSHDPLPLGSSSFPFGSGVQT
# Assay name: Inhibition of His-tagged cytoplasmic recombinant human FGFR4 ([…] residues) expressed in baculovirus expression system using Tyr 4 peptide as substrate incubated for 1 hr by FRET-based Z'-Lyte assay
pIC50: −log10 of the molar value.
Property name: pIC50

[[record]]
smiles_notation = "CCC(=O)Nc1cccc(Cl)c1Nc1ncc(OCc2c(Cl)c(OC)cc(OC)c2Cl)cn1"
value = "< 5.00"


Asked: Name the reported pIC50 value associated with the molecule `C=CC(=O)Nc1c(C)cccc1Nc1ncc(OCc2c(Cl)c(OC)cc(OC)c2Cl)cn1`
Given back: < 5.00

Asked: Please do the same for `C=CC(=O)Nc1cc(F)cc(Cl)c1Nc1ncc(OCc2c(Cl)c(OC)cc(OC)c2Cl)cn1` as well.
Given back: 8.59

----------
# Target: Fibroblast growth factor receptor 2 (Homo sapiens, UniProt P21802)
# Sequence (P21802 whole entry, the tested form may be a part): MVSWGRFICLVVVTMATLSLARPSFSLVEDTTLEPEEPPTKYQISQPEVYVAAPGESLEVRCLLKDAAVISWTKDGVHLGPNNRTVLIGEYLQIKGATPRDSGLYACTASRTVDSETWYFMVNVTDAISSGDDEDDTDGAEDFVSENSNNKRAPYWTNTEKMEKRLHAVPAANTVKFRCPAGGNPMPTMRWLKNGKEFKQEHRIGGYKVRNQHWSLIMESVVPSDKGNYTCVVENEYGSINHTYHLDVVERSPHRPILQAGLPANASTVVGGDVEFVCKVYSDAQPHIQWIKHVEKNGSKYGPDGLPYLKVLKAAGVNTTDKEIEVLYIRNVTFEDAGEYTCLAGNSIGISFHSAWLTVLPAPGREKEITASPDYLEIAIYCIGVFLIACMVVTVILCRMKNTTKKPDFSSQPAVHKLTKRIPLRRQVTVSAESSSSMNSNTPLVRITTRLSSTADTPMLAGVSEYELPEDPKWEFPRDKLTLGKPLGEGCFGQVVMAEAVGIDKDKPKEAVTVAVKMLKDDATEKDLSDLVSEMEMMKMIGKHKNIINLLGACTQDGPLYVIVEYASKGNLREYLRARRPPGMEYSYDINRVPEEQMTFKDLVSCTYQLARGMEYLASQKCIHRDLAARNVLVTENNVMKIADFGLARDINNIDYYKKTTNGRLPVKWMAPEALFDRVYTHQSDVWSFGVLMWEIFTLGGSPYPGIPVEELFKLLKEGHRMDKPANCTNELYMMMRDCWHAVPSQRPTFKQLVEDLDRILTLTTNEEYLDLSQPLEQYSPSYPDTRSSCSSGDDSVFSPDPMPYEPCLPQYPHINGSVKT
# Assay name: Inhibition of His-tagged cytoplasmic recombinant human FGFR2 (403 to 822 residues) expressed in baculovirus expression system using Tyr 4 peptide as substrate incubated for 1 hr by FRET-based Z'-Lyte assay
Parameter: IC50. Scope: all listed entries.

Worked examples, 4 compounds total:
[[record]]
smiles_notation = "C=CC(=O)Nc1cccc(OC)c1Nc1ncc(OCc2c(Cl)c(OC)cc(OC)c2Cl)cn1"
target = "Fibroblast growth factor receptor 2 (Homo sapiens, UniProt P21802)"
property_name = "IC50"
value = "> 10 µM"

[[record]]
smiles_notation = "C=CC(=O)Nc1ccc(C)cc1Nc1ncc(OCc2c(Cl)c(OC)cc(OC)c2Cl)cn1"
target = "Fibroblast growth factor receptor 2 (Homo sapiens, UniProt P21802)"
property_name = "IC50"
value = "> 10 µM"

[[record]]
smiles_notation = "C=CC(=O)Nc1cccc(Cl)c1Nc1ncc(OCc2cccc(OC)c2Cl)cn1"
target = "Fibroblast growth factor receptor 2 (Homo sapiens, UniProt P21802)"
property_name = "IC50"
value = "> 10 µM"

[[record]]
smiles_notation = "C=CC(=O)Nc1cccc(F)c1Nc1ncc(OCc2c(Cl)c(OC)cc(OC)c2Cl)cn1"
target = "Fibroblast growth factor receptor 2 (Homo sapiens, UniProt P21802)"
property_name = "IC50"
value = "0.397 µM"


Asked: Find IC50 (Fibroblast growth factor receptor 2 (Homo sapiens, UniProt P21802)) for the entry `C=CC(=O)Nc1cccc(C(F)(F)F)c1Nc1ncc(OCc2c(Cl)c(OC)cc(OC)c2Cl)cn1`
Given back: > 10 µM

----------
# reported IC50; entries follow
# Test system: MDA-MB-231
# Assay name: Antiproliferative activity against human MDA-MB-231 cells expressing low levels of FGFR4 after 72 hrs by CCK8 assay
# Run conditions: MDA-MB-231, 72 h

Completed entries (count: 5):
[[record]]
smiles_notation = "C=CC(=O)Nc1cccc(C)c1Nc1ncc(OCc2c(Cl)c(OC)cc(OC)c2Cl)cn1"
target = "MDA-MB-231"
value = "> 10 µM"

[[record]]
smiles_notation = "C=CC(=O)Nc1cccc(OC)c1Nc1ncc(OCc2c(Cl)c(OC)cc(OC)c2Cl)cn1"
target = "MDA-MB-231"
value = "2.14 µM"

[[record]]
smiles_notation = "C=CC(=O)Nc1cccc(C)c1Nc1ncc2cc(-c3c(Cl)c(OC)cc(OC)c3Cl)ccc2n1"
target = "MDA-MB-231"
value = "3.76 µM"

[[record]]
smiles_notation = "C=CC(=O)Nc1cc(Cl)cc(Cl)c1Nc1ncc(OCc2c(Cl)c(OC)cc(OC)c2Cl)cn1"
target = "MDA-MB-231"
value = "> 10 µM"

[[record]]
smiles_notation = "C=CC(=O)Nc1cccc(Cl)c1Nc1ncc(OCc2c(Cl)c(OC)cc(OC)c2Cl)cn1"
target = "MDA-MB-231"
value = "> 10 µM"


In the following, a different molecule is considered.
Asked: Value lookup for IC50; key = `C=CC(=O)Nc1cc(F)cc(Cl)c1Nc1ncc(OCc2c(Cl)c(OC)cc(OC)c2Cl)cn1`
Given back: > 10 µM
